B1: library; a variant is named by its letters at N, in order (parent)
chain: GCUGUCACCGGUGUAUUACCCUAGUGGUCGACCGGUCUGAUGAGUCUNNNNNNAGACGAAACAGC

Variants of: B1
Protocol: FACS-Seq fitted mean relative fluorescence mCherry/BFP with ligand (log10 relative fluorescence); ligand: hypoxanthine (xanthine aptamer); ligand concentration (+) FACS-Seq: 5 mM; higher = higher reporter protein expression
Measurement Context: HEK293T, ligand present: yes
Respond with yes (1) for FACS-Seq fitted mean (log10) values of 0.5 and above, no (0) for values below.

[[record]]
mutant_designation = "AGAGAG"
assigned_category = "no (0)"

[[record]]
mutant_designation = "UGGCAG"
assigned_category = "yes (1)"

[[record]]
mutant_designation = "AGUUGC"
assigned_category = "no (0)"

[[record]]
mutant_designation = "AUGCCA"
assigned_category = "no (0)"

[[record]]
mutant_designation = "UCGCAG"
assigned_category = "no (0)"


Kindly review the next variant as well.
QUERY: Identify whether the reported FACS-Seq fitted mean (log10) of the following variant is 0.5 or greater: `GUAAAC`
RESULT: yes (1)
